Every entry's value here was drawn from ChEMBL document CHEMBL4765458.

- System: SW480
- ASSAY_DETAILS: Cytotoxicity against human SW480 cells assessed as reduction in cell viability measured after 48 hrs by MTT assay
- Type: functional, cell-based
- MEASUREMENT_CONTEXT: SW480, 48 h
METRIC_NAME: pIC50
Friendly reminder that pIC50 comes from taking -log10 of the concentration in mol/L.

Below, each entry is followed by its recorded pIC50 result.
| COMPOUND | pIC50 |
| --- | --- |
| CCc1cccc2c3c([nH]c12)C(CC)(CC(=O)NCCC[Se]C(F)(F)F)OCC3 (configuration not stated) | 4.84 |
| CC(=O)Oc1ccccc1C(=O)NCCC[Se]C#N | 5.13 |
| COc1ccc2cc([C@H](C)C(=O)NCCC[Se]C#N)ccc2c1 | 4.66 |
| CCc1cccc2c3c([nH]c12)C(CC)(CC(=O)NCCC[Se]C#N)OCC3 (configuration not stated) | 4.72 |
| CC(C)Cc1ccc(C(C)C(=O)NCCC[Se]C(F)(F)F)cc1 (configuration not stated) | 5.48 |

Respond only with pIC50 recorded for CC(C(=O)NCCC[Se]C(F)(F)F)c1ccc(-c2ccccc2)c(F)c1 (configuration not stated) 4.61

Respond only with pIC50 recorded for CC(C)Cc1ccc(C(C)C(=O)NCCC[Se]C#N)cc1 (configuration not stated) 5.28

Respond only with pIC50 recorded for `COc1ccc2cc([C@H](C)C(=O)NCCC[Se]C(F)(F)F)ccc2c1` 4.80

Respond only with pIC50 recorded for CC(C(=O)NCCC[Se]C#N)c1ccc(-c2ccccc2)c(F)c1 (configuration not stated) 4.52

Respond only with pIC50 recorded for `N#C[Se]CCCNC(=O)c1ccccc1Nc1cccc(C(F)(F)F)c1` 4.76

---

Measured IC50, listed per entry for reference.
- System: SW480
- ASSAY_DETAILS: Cytotoxicity against human SW480 cells assessed as reduction in cell viability measured after 48 hrs by MTT assay
- Type: functional, cell-based
- MEASUREMENT_CONTEXT: SW480, 48 h
Field format: number, assumed µM, no unit text.

| COMPOUND | METRIC_NAME | RECORDED_MEASUREMENT |
| --- | --- | --- |
| CC(=O)Oc1ccccc1C(=O)NCCC[Se]C(F)(F)F | IC50 | 7.2 |
| C[C@H](C(=O)NCCC[Se]C(F)(F)F)c1cccc(C(=O)c2ccccc2)c1 | IC50 | 7.4 |
| C[C@H](C(=O)NCCC[Se]C#N)c1cccc(C(=O)c2ccccc2)c1 | IC50 | 8.4 |

Kindly consider the entry below.
Respond only with IC50 recorded for O=c1[nH]cc(F)c(=O)[nH]1 [FLUOROURACIL] 12.4

---

- System: SW480
- ASSAY_DETAILS: Cytotoxicity against human SW480 cells assessed as reduction in cell viability measured after 48 hrs by MTT assay
- Type: functional, cell-based
- MEASUREMENT_CONTEXT: SW480, 48 h
pIC50: −log10 of the molar value.
METRIC_NAME: pIC50

| MOLECULE | MEASURED_TARGET | RECORDED_MEASUREMENT |
| --- | --- | --- |
| CC(C(=O)O)c1cccc(C(=O)c2ccccc2)c1 (stereo not drawn) | SW480 | < 4.30 |
| COc1ccc2c(c1)c(CC(=O)O)c(C)n2C(=O)c1ccc(Cl)cc1 | SW480 | < 4.30 |

Kindly consider the entry below.
Respond only with pIC50 recorded for CC1=C(CC(=O)O)c2cc(F)ccc2/C1=C\c1ccc([S+](C)[O-])cc1 (stereo not drawn) < 4.30
